Tested on: HT-29
Test: NCI tumour cell line growth inhibition, 48 h
Activity calls are given as the source filed them. Cut-off read from the data, not from the text of the source: active = GI50 up to about 1.1 µM and inactive = higher.
Respond with a class label; see y (active), n (inactive)

See these solved cases before continuing.
molecule: O=C1c2ccccc2/C=C\C(c2ccccc2)=N/N1c1ccccc1Cl
category_label: n
//
molecule: C(=N\NC1=NCCCN1)/c1ccc(-c2cn3cc(/C=N/NC4=NCCCN4)ccc3n2)cc1
category_label: n
//
molecule: O=c1[nH][nH]c(=O)n1Cc1ccccc1
category_label: n
//
molecule: O=C1Cc2c([nH]c3ccccc23)-c2ccccc2N1
category_label: n
//
molecule: COC(=O)c1c(C#N)[nH]c(-c2ccsc2)c1C(=O)OC
category_label: n
//
molecule: O=C(NNc1ccccc1)/C(=C/c1ccc2c(c1)OCO2)NC(=O)c1ccccc1
category_label: n

Next, consider the following molecule.
INPUT: Recorded test call requested for NCCCc1c(-c2ccccc2)[nH]c(N)nc1=O
OUTPUT: n

----------
Tested on: COLO 205
Test: NCI tumour cell line growth inhibition, 48 h
The source made the active and inactive calls. No stated cut-off is given here; in the data, active = GI50 up to about 1.1 µM and inactive = higher.
Respond with a class label; see yes (active), no (inactive)

See these solved cases before continuing.
compound: S=P(c1ccccc1)(c1ccccc1)C1(C2(P(=S)(c3ccccc3)c3ccccc3)CC2)CC1
category_label: no
--
compound: COC(CNC(=O)C(C)NC(=O)/C=C/c1ccccc1)OC (stereo unspecified)
category_label: no
--
compound: COc1ccc(C[C@H]2COC(=O)[C@@H]2Cc2cc(OC)c(OC)c(OC)c2)cc1OC
category_label: no

INPUT: Recorded test call requested for OC12CC3c4ccccc4NC3C3Oc4cccc5c4C31CCN(CC1CC1)C2C5 (stereo unspecified)
OUTPUT: no

INPUT: Recorded test call requested for O=C(NC(Cc1c[nH]c2ccccc12)C(=O)O)/C(=C/c1ccccc1)NC(=O)c1ccccc1 (stereo unspecified)
OUTPUT: no

INPUT: Recorded test call requested for CCOc1cc[n+]([C-](C#N)C#N)cc1
OUTPUT: no

INPUT: Recorded test call requested for NC1=C2C(Br)=CN([C@@H]3O[C@H](CO)[C@@H](O)[C@@H]3O)C2C(=O)N=N1 (stereo partly specified)
OUTPUT: no

INPUT: Recorded test call requested for Cc1ccc(S(=O)(=O)c2ccc([N+](=O)[O-])o2)cc1
OUTPUT: yes

INPUT: Recorded test call requested for COc1cccc(/N=N/N2CCCC2)c1
OUTPUT: no

INPUT: Recorded test call requested for O=C(C(Cl)=C(Nc1ccccc1)Nc1ccccc1)C(Cl)Cl
OUTPUT: no

INPUT: Recorded test call requested for COc1ccc(C2SC(=N)Nc3c2c(C)nn3C(=O)c2ccc(Cl)cc2)cc1 (stereo unspecified)
OUTPUT: no

INPUT: Recorded test call requested for BrC1=CC=C2NC=CC3=CC=NC1C32 (stereo unspecified)
OUTPUT: no

INPUT: Recorded test call requested for CCCCOC(=O)C(NC(C(=O)OCCCC)c1cc(C(C)(C)C)c(O)c(C(C)(C)C)c1)c1cc(C(C)(C)C)c(O)c(C(C)(C)C)c1 (stereo unspecified)
OUTPUT: no

INPUT: Recorded test call requested for [N-]=[N+]=Nc1c(C=O)c(=O)n2c3c(cccc13)CCC2
OUTPUT: no

INPUT: Recorded test call requested for COc1ccc(/C=C\c2cc(OC)c(OC(C)=O)c(OC)c2)cc1
OUTPUT: no

INPUT: Recorded test call requested for Cc1nc2ccc(Br)cc2c(=O)n1-c1nnc(C(C)(C)C)s1
OUTPUT: no

INPUT: Recorded test call requested for CN1CC=C(c2cccn2C)CC1
OUTPUT: no

INPUT: Recorded test call requested for O=C(NO)c1ccc(OCc2ccccc2)cc1
OUTPUT: no

INPUT: Recorded test call requested for CC(Nc1ccc(Cl)c(Cl)c1)c1ccncc1 (stereo unspecified)
OUTPUT: no

INPUT: Recorded test call requested for c1ccc2c(c1)cc1c3[nH]c4ccccc4c3ccn21
OUTPUT: no

INPUT: Recorded test call requested for CC(=O)OCC(OC(C)=O)C1C[C@H]2O[C@@H]3[C@H](C[C@H]2O1)O[C@@]1(C[C@@H]3C)C[C@H](C)[C@@H]2O[C@]3(C[C@@H]2O1)C[C@H]1O[C@H]2[C@H](C)[C@H]4OC(=O)C[C@H]5CC[C@@H]6OC7[C@H]8O[C@]9(CC[C@H]%10CC(=O)[C@H](CC[C@H]%11C[C@@H](C)C(=O)C(C[C@@H]4O[C@H]2C[C@H]1O3)O%11)O%10)CC8O[C@@H]7[C@@H](O9)[C@H]6O5 (stereo partly specified)
OUTPUT: yes

----------
System: COLO 205
Experiment: NCI tumour cell line growth inhibition, 48 h
The source made the active and inactive calls. No stated cut-off is given here; in the data, active = GI50 up to about 1.1 µM and inactive = higher.
Quick list: GI50 per entry.

INPUT: Please report the recorded GI50 for CC1=C(C(=O)OC(C)C)C(c2ccccc2C(F)(F)F)C(C(=O)OC(CO[N+](=O)[O-])CO[N+](=O)[O-])=C(C)N1 (stereo not given) .
OUTPUT: 10.2 µM (inactive)

INPUT: Please report the recorded GI50 for CCCCCCCCCCCC1=C(O)C(=O)C=C(O)C1=O [EMBELIN] .
OUTPUT: 7.5 µM (inactive)

----------
System: HOP-62
Test: NCI tumour cell line growth inhibition, 48 h
The source made the active and inactive calls. Cut-off read from the data, not from the text of the source: active = GI50 up to about 1.1 µM and inactive = higher.
Respond with a class label; see active, inactive

See these solved cases before continuing.
compound: CCCCCCSc1nc(COC(=O)NC)c(COC(=O)NC)n1C
category_label: inactive

compound: CC(C)c1ccc(C2C3=C(N=C4SCC(=O)N42)C(=O)c2ccccc23)cc1 (stereo not drawn)
category_label: inactive

compound: N#CC1=C(S)N(C2OC(CO)C(O)C(O)C2O)C(c2ccccc2)=CC1c1cccs1 (stereo not drawn)
category_label: inactive

compound: CC(O)/C=C/C1OC(=O)CC1Nc1ccc(C=O)cc1 (stereo not drawn)
category_label: inactive

compound: COc1ccc(C2OC(=O)c3c2ccc2ccccc32)c(C)c1 (stereo not drawn)
category_label: inactive

INPUT: Recorded test call requested for CC(C)(C)c1cc2c(OP(c3ccccc3)c3ccccc3)c(c1)Cc1cc(C(C)(C)C)cc(c1OP(c1ccccc1)c1ccccc1)Cc1cc(C(C)(C)C)cc(c1OP(c1ccccc1)c1ccccc1)Cc1cc(C(C)(C)C)cc(c1OP(c1ccccc1)c1ccccc1)C2
OUTPUT: inactive

INPUT: Recorded test call requested for O=C(C(Cl)=C(Nc1ccccc1)Nc1ccccc1)C(Cl)Cl
OUTPUT: inactive

INPUT: Recorded test call requested for COC(=O)Nc1nc2cc(NS(=O)(=O)c3ccc(F)cc3)ccc2[nH]1
OUTPUT: inactive

INPUT: Recorded test call requested for COc1cc2c(oc(=O)c3c4occc4cc(OC)c23)c2cccc(O)c12
OUTPUT: inactive

INPUT: Recorded test call requested for CC#C[I+]c1ccccc1
OUTPUT: inactive

INPUT: Recorded test call requested for CC(C)[C@H]1CO[C@]2(C)[C@@H]3CN(Cc4ccccc4)C[C@@H]3C(=O)N12
OUTPUT: inactive

INPUT: Recorded test call requested for CC(=O)OCC(OC(C)=O)C1C[C@H]2O[C@@H]3[C@H](C[C@H]2O1)O[C@@]1(C[C@@H]3C)C[C@H](C)[C@@H]2O[C@]3(C[C@@H]2O1)C[C@H]1O[C@H]2[C@H](C)[C@H]4OC(=O)C[C@H]5CC[C@@H]6OC7[C@H]8O[C@]9(CC[C@H]%10CC(=O)[C@H](CC[C@H]%11C[C@@H](C)C(=O)C(C[C@@H]4O[C@H]2C[C@H]1O3)O%11)O%10)CC8O[C@@H]7[C@@H](O9)[C@H]6O5 (stereo partly drawn)
OUTPUT: active

INPUT: Recorded test call requested for Cc1ccc(S(=O)(=O)N/N=C2/CC3CCC4CC2CC34)cc1 (stereo not drawn)
OUTPUT: inactive

INPUT: Recorded test call requested for NC(=O)C12CC3CC(CC(Br)(C3)C1)C2
OUTPUT: inactive

INPUT: Recorded test call requested for O=C(CN1C(=O)c2ccccc2C1=O)NC1(C(=O)O)CCCC1
OUTPUT: inactive

INPUT: Recorded test call requested for O=C(O)CC1OCC=C2CN3CCC45C6=CC(=O)C(O)=C([N+](=O)[O-])C6=NC4C1C2CC35 (stereo not drawn)
OUTPUT: inactive

INPUT: Recorded test call requested for CSc1nc(=S)[nH]c2c1c(C)nn2-c1ccccc1
OUTPUT: inactive

INPUT: Recorded test call requested for Cc1nnc(N)nc1/C=C/c1c(O)ccc2ccccc12
OUTPUT: inactive

INPUT: Recorded test call requested for COc1ccc(C2SC(=N)Nc3c2c(C)nn3C(=O)c2ccc(Cl)cc2)cc1 (stereo not drawn)
OUTPUT: inactive

INPUT: Recorded test call requested for O=[N+]([O-])c1cccc(/C=N/NC2=CS(=O)(=O)C=C2)c1
OUTPUT: inactive

INPUT: Recorded test call requested for COC(=O)C1=COC2OC3/C(=C\c4ccc(O)c(OC)c4)C(=O)OC34C=CC1C24 (stereo not drawn)
OUTPUT: inactive
